- PROCEDURE_SUMMARY: Metabolic stability in rat liver microsomes assessed as compound remaining at 0.5 uM measured after 10 mins
- Type: ADME, Microsome
- CONDITION_PARAMETERS: read-out: Stability
MEASURE: remaining at 10 min, 0.5 µM (%)
Give bare numbers, in %.

Check out these entries, answers already filled in.
INPUT_SMILES	remaining at 10 min, 0.5 µM (%)
Cc1noc(C)c1[C@@H]1C[C@@](C)(c2ccccc2)N=C(N)S1	81
Cc1onc(-c2ccc(F)cc2)c1[C@@H]1C[C@@](C)(c2ccc(F)cc2F)N=C(N)S1	35
Cc1noc(-c2ccc(F)cc2)c1[C@@H]1C[C@@](C)(c2ccc(F)cc2F)N=C(N)S1	88
Cc1noc(-c2ccccc2)c1[C@@H]1C[C@@](C)(c2ccc(F)cc2F)N=C(N)S1	20

Query string: Given the molecule "CCc1noc(CC)c1[C@@H]1C[C@@](C)(c2ccc(F)cc2F)N=C(N)S1" , what is its reported remaining at 10 min, 0.5 µM?
Result string: 67

###

- TESTED_ON: Cytochrome P450 1A2 (Homo sapiens)
- Sequence (P05177 whole entry): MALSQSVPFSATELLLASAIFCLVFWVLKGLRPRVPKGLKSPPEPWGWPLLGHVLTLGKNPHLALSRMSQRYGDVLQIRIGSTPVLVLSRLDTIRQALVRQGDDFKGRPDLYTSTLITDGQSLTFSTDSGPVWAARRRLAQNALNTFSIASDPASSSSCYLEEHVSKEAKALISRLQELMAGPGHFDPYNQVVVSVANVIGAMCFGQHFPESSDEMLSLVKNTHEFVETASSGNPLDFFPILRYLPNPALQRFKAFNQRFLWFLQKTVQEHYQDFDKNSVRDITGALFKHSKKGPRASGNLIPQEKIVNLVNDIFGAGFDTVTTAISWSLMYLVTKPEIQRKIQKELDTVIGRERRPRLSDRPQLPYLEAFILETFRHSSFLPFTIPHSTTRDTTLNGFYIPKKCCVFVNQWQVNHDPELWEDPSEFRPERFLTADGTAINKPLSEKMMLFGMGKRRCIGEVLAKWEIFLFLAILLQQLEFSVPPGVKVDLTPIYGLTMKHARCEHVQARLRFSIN
- PROCEDURE_SUMMARY: Inhibition of recombinant human CYP1A2 preincubated for 10 mins followed by addition of CEC as substrate measured after 45 mins
MEASURE: IC50

Query string: Name the recorded IC50 for "C[C@@]1(c2ccc(F)cc2F)C[C@@H](c2cncnc2)SC(N)=N1" .
Result string: > 20 µM

###

- PROCEDURE_SUMMARY: Plasma concentration in mouse at 30 mg/kg, po measured after 3 hrs
- Type: ADME, organism-based
Answer each item with its documented concentration at 3 h.
One number for each entry, in µM.

INPUT_SMILES	concentration at 3 h (µM)
Cc1noc(C)c1[C@@H]1C[C@@](C)(c2cc(-c3cncnc3)c(F)cc2F)N=C(N)S1	7.4

Give me concentration at 3 h for each of these compounds, listed below.
1. Cn1nccc1[C@@H]1C[C@@](C)(c2ccc(F)cc2F)N=C(N)S1
2. C[C@@]1(c2ccc(F)cc2F)C[C@@H](c2cncnc2)SC(N)=N1
3. Cc1noc(C)c1[C@@H]1C[C@@](C)(c2ccc(F)cc2F)N=C(N)S1

Result string:
1: 4.3; 2: 6.7; 3: 4.8
